The values you see were collected from the NIST ThermoML archive (doi:10.1021/je900407u).

# protocolNotes: isobaric coefficient of expansion
# recordedConditions: 328.15 K; 10000 kPa; Liquid; Micro DSCII
observationType: isobaric coefficient of expansion

Examples with their reported isobaric coefficient of expansion follow.
[
  {
    "compound": "CCCCn1cc[n+](C)c1.COS(=O)(=O)[O-] [1-butyl-3-methylimidazolium methyl sulfate]",
    "isobaric coefficient of expansion": "0.000529 1/K"
  },
  {
    "compound": "CCCC[n+]1ccn(C)c1.O=S(=O)([N-]S(=O)(=O)C(F)(F)F)C(F)(F)F",
    "isobaric coefficient of expansion": "0.000649 1/K"
  },
  {
    "compound": "CCCCn1cc[n+](C)c1.O=S(=O)([O-])C(F)(F)F [1-butyl-3-methylimidazolium trifluoromethanesulfonate]",
    "isobaric coefficient of expansion": "0.000586 1/K"
  },
  {
    "compound": "CCCCn1cc[n+](C)c1.F[B-](F)(F)F [1-butyl-3-methylimidazolium tetrafluoroborate]",
    "isobaric coefficient of expansion": "0.00057 1/K"
  }
]

Then this compound:
Q) Output isobaric coefficient of expansion of CCCCn1cc[n+](C)c1.[F][Sb-]([F])([F])([F])([F])[F] [1-butyl-3-methylimidazolium hexafluoroantimonate]
A) 0.000601 1/K
